Catalogue of pIC50 readings, one per entry.
target: Proteasome; assay: Inhibitory activity was evaluated against chymotrypsin-like enzyme; type: subcellular
pIC50: −log10 of the molar value. Residues, ends and D or L forms follow the SMILES beside them.

CC(C)C[C@H](NC(=O)[C@H](CO)NC(=O)[C@H](C)NC(=O)OCc1ccccc1)C(=O)NCc1ccccc1 (HELM PEPTIDE1{[O=C(OCc1ccccc1)[*:2]].A.S.L.[c1ccc(CN[*:1])cc1]}$$$$V2.0)	< 4.70

Shift focus to the following entry.
Supply reported pIC50 belonging to this compound: CC[C@H](C)[C@H](NC(=O)OCC1c2ccccc2-c2ccccc21)C(=O)N[C@@H](CO)C(=O)N[C@@H](CC(C)C)C(=O)NCc1ccccc1 (HELM PEPTIDE1{[O=C(OCC1c2ccccc2-c2ccccc21)[*:2]].I.S.L.[c1ccc(CN[*:1])cc1]}$$$$V2.0)
< 4.70
